test: protein stability index of a GFP-peptide fusion (GPS, HEK-293T) (PSI 1-6); higher = more stable; conditions: treatment: DMSO; c terminus: a fixed tail appended;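 further: 24-mer peptide tiles fused after GFP, lentivirally expressed, FACS-sorted into six equal bins by GFP/DsRed ratio, decoded by Illumina sequencing, PSI is the read-weighted mean bin number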
VALUE TYPE: protein stability index

                               sequence  value_observed
 0    RWSLISLSNKNGKNVELKFVDSIR [TENT5C]            2.39
 1    FEDLPLQEPQSPQKLNPGFDLAKG [PLAGL1]            5.03
 2  ANGEVTYSFRKLPDTQLLKFQLNK [PCDHGA10]            2.83
 3  LAYLPFKLEKSIDSYYRLVIHRAL [PCDHGA10]            2.25
 4      VMFKIGDLGHVTRISSPQVEEGDS [WEE1]            3.44
 5    DLYNWEVAIFGPPNTLYEGGYFKA [UBE2R2]            2.66
 6    ECNECGKAFSRSSGLFNHRGIHNI [ZSCAN9]            2.48
 7   IGMHREMQVNPISKRMGPMTVVRM [RHOBTB1]            2.39
 8  SFLWQRGRKFLQKHLNASNPTEPA [TOR1AIP2]            2.86
 9   PDFYKQSSPNLQVSSDGTLKYMEV [PCDHGC5]             3.4
10     GRYPLIQTLRQELSLPYLPSGTPE [CHIT1]            3.51
11     FKTYISPWERAMGVDPQQKMELGI [MYOZ1]            2.42
12    NDADKAINTLNGLKLQTKTIKVSY [ELAVL3]            2.96
13     SLKEDLTQHKFICEQCGKCKCGEC [SPRY1]            5.32
14    LEEEEEEEDLVLTCEDDEDEELGG [ZBTB22]            5.57
15    YSPSQYALQYAGDGSVLLIPRTMA [NFE2L1]            2.11
16     PCATVSVFPGARLLTIGDANGEIQ [CARM1]            3.31
17     EEENIGCEEKAKKNANRPLLDEIV [ACBD3]            5.25
18      PKSPATPKQLRLINQPLPDLKNVK [MAP2]            4.51
19      NKEYIKRLLMSQADKMTAEEVDQM [MYL5]            4.53
20  SQAQETTIIASNAEEAEILHSACG [TOR1AIP2]            5.26
21    MVVSREEVELAYQEAMFNMATLNR [SEPHS2]            2.93
22    ILAHLTGTEFMQDPDEEHLKKSSQ [PDLIM7]             3.9
23      AAVVTSPPPTTAPHKERYFDRVDE [ADD1]            4.77
24     QSERQRHESQQLATETQALAQRTQ [TEKT4]            5.43
25     YLNHVRAASPQDLAGGYTSSLACH [MNAT1]            2.85
26     ERDREREPEAASSRGSPVRVKREF [USP39]             5.4
27  WNHIRLQRTAKGKPVLAKDSSNPY [AASDHPPT]             2.9
28      SPAAPYFLGSSFSPVRCGGPGDAS [WEE1]            3.06
29     YKMDHRRRGIALIFNHERFFWHLT [CASP6]             2.4
30    ARKYFERLPGGGWTLRRTKELRKD [DYRK1B]            3.66
31    FRFDKPKKSRSPASAEAPGDSGER [ZNF511]            4.95
32    DYSQLNESTTKESSEASQLEDAAG [FBXO34]            5.47
33     EKEESRREAEKQNYLAEHCPPLHI [TNNI2]            4.93
34      HDSANCELPLLTPCSKAVMSQALK [ETS2]            3.34
35      RVERRFHFSQSLTVIHDFLFSLKE [FAF2]            2.17
36      EMSEKRGPTSSNPRKRHREDSDVE [MLH1]            5.49
37     EQVRFLMKSYSFLREAVPGILRAR [SOAT2]            1.85
38      SLVADNCVTLVWRMPDEDSKIDHY [FSD1]            2.62
39     PPRGPLAKHRLVPPAQGRVSRRLS [TRIM9]            4.21
40     FTLASSSDTRVGAPATGSGTPGPF [CHIT1]            3.73
41    FAHSSNLLRHQRIHTGERPYKCPE [ZNF263]            2.99
42     QPWVEVVLALRNMKNLLFSEMWDI [MFSD9]            2.78
43      NLGGGDPKGWRQLAQEAEAWLNYP [OAS1]            3.22
44     SWQDLKDHMREAGDVCYADVYRDG [SRSF1]            3.96
45    TARRSKRERREEDRAPAEQVPRSP [PWWP2B]            5.38
46       LSDTELTTLLRRYNIPHGPVVGST [EMD]            2.74
47  GYYSEKLEAIQLDGEILFSLLQKV [TBC1D10A]            2.44
48     SVDLMLGLPAQQVGPWLGQLQELL [RSAD1]            2.38
49     AAMEGATLDQTTSEEAPGGTELIQ [HDAC6]            5.64
50     ARLKKVLIVGAPIWFRVPYSIISL [PTPN9]            3.32
51    WRDSKGKDKEYAEIIRKQVSATKA [UBE2R2]             3.9
52     SLYLLLVSCPKSEVRAKFKFSLLN [SPOPL]            2.56

* * *

Overview of reported protein stability index across a group of sequences:
test: protein stability index of a GFP-peptide fusion (GPS, HEK-293T) (PSI 1-6); higher = more stable; settings: treatment: DMSO; c terminus: a fixed tail appended
VALUE TYPE: protein stability index

>>> df
                             sequence  value_observed
0    TKPSKSAALHIDLCKATSPADALQ [INTS4]            3.91
1     TSGVVFTGLMVSLLCLLHFSIVSV [RTN2]               3
2    SDAAFGGILERYWLSSRAAAIKVN [MYORG]            2.19
3  SNLTSNLASLVSQGMIQLALSGAS [RETREG3]            3.05
4    EEANADLEVKIRDWYQRQRPSEIK [KRT16]            4.14

* * *

assay: protein stability index of a GFP-peptide fusion (GPS, HEK-293T) (PSI 1-6); higher = more stable; details: treatment: MLN4924 1 uM, 8 h; c terminus: a fixed tail appended
# if value of protein stability index reaches 3, tag 1; if it stays below, tag 0

>>> df
                               sequence  assigned_class
 0   KMTDLLSRRLQLGSEENGRYFSLS [PCDHGC5]               0
 1      YPSVILRDPLQTDTLQNDYFAIKQ [ETS1]               1
 2     ADADCFVCVFLSHGEGNHIYAYDA [CASP6]               0
 3      ETVADVRTLPNASTVDNIRSIFGN [MLH1]               1
 4     LAICRPLTYSTRMSQTVQRMLVAA [OR3A1]               0
 5    KYDYLMTLHGVVNESTVCLMSYER [TENT5D]               0
 6  EDDRDGLLAEREQEEAIAQFPYVE [TMEM106C]               1
 7      TVIHDFLFSLKESPEKFQIEANFP [FAF2]               0
 8      GRVHLVKEKTAKHFFALKVMSIPD [PRKX]               0
 9     MSRQFTCKSGAAAKGGFSGCSAVL [KRT71]               0
10    QNFLDPGYPLPKLDMNFSLENREE [ZNF449]               1
11    LAFPLKHPDSWRAYPFYWAWLPQA [PI4K2A]               0
12     TNHIAPHARNGLSLKEEHRAYDLL [IKZF1]               1
13   GSKARAEGRGPVTPLHLDLTQLHR [PLEKHN1]               1
14   VNDNAPEVLLASLANPVLESTPVG [PCDHGC5]               1
15     PGLSQGPGKETLESALIALDSEKP [EHMT1]               1
16    QNQSDSLLALAGAVQRLEGALWGL [SCARA5]               0
17      SSSTLMSSELETTSFFDSDEDDST [DVL3]               1
18     YSKFHGLEMCVDARTFGNEARFIR [KMT2E]               0
19     VRKEDMTYAVRKLDNTKFRSHEGE [SRSF1]               1
20    MDPGWGQRDVGWAALLILFAASLL [C2CD2L]               0
21      AIEKAFQLWSNVTPLTFTKVSEGQ [MMP1]               0
22   MTLEEFSAGEQKTERMDKVGDALE [GADD45A]               1
23      AARPDVKCVVHIHTPAGAAVSAMK [ADD1]               1
24     PGPPGSSRPVKGQVVTVHLQTSLE [FKBP8]               1

src = the supplement of paper PMC10567573
